Molecular target: BTK T316A (Homo sapiens (Human), UniProt Q06187, T316A)
Sequence (Q06187 whole entry T316A): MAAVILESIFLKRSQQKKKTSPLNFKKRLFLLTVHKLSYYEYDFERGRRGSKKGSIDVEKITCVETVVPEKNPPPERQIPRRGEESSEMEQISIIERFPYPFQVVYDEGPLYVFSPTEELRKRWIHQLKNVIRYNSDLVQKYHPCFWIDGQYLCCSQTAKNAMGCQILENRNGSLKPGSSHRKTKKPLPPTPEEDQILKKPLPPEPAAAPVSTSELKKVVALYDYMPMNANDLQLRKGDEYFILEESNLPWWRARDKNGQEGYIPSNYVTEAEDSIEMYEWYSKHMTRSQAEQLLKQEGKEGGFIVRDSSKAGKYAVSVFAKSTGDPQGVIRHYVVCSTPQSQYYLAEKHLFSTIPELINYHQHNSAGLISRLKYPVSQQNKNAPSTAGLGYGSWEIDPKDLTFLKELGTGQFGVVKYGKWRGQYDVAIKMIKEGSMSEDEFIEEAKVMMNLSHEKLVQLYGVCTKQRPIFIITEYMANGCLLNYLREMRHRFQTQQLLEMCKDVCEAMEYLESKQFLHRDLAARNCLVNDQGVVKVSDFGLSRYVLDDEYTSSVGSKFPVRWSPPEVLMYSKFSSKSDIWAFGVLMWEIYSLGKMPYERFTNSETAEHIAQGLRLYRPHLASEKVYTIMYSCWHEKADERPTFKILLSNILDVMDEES
Experiment: Binding kinetics measurements (Surface Plasmon Resonance) on BTK T316A
Conditions: target residence time, SPR
property_name: Tau (h) BTK T316A (Act)

{"columns": ["compound", "reading_unit", "quantitative_result"],
 "data": [
  ["COc1ccc(F)cc1C(=O)NCc1ccc(-c2nn([C@@H](C)C(F)(F)F)c(N)c2C(N)=O)cc1 [pirtobrutinib, reference compound]", "h", 0.17],
  ["N#Cc1ccnc(NC(=O)c2ccc(-c3nn4c5c(cnc(N)c35)/C=C/CCOCCC(=O)N[C@@H]3CCC[C@@H]4C3)cc2)c1", "h", 2.91],
  ["Nc1ncc2c3c1c(-c1ccc(C(=O)Nc4cc(C(F)(F)F)ccn4)cc1)nn3[C@@H]1CCC[C@H](C1)NC(=O)CCCC[C@H](O)/C=C/2", "h", 6.42],
  ["C[C@@H]1CCn2nc(-c3ccc(C(=O)Nc4cc(C(F)(F)F)ccn4)cc3)c3c(N)ncc(c32)/C=C/CCN2CC[C@H]2C(=O)N1", "h", 3.79],
  ["Nc1ncc2c3c1c(-c1ccc(C(=O)Nc4cc(C(F)(F)F)ccn4)cc1)nn3[C@@H]1CCC[C@H](C1)NC(=O)CCNCC/C=C/2", "h", 3.62],
  ["Nc1ncc2c3c1c(-c1ccc(C(=O)Nc4cc(C(F)(F)F)ccn4)cc1)nn3[C@@H]1CCC[C@H](C1)NC(=O)COC/C=C/2", "h", 2.20]
]}
